Taken from patent US20110112100A1.

Test system: 1b (con1) replicon cells
Assay: HCV 1b replicon inhibitory activity (luciferase, Britelite Plus)
Type: cell-based, hepatitis C virus
Settings: geometric mean, 95% confidence intervals in parentheses; 48 hours; medium with 10% FCS; read-out: IC50 value (95% Confidence Intervals) pM Replicon 1B assay
Counter-ions that a name gives are not always drawn.
Hi there, I'd appreciate the recorded IC50 for every entry that follows.
One number for each entry, in pM.

Please review the entries below; each comes with its answer.
INSERT INTO measurements (compound, result_number) VALUES
  ('COC(=O)N[C@H](C(=O)N1CCC[C@H]1c1nc(-c2ccc(-c3cnc4cc(-c5cnc([C@@H]6CCCN6C(=O)[C@@H](NC(C)=O)[C@@H](C)O)[nH]5)ccc4n3)cc2)c[nH]1)C(C)C [Example 40, trifluoroacetic acid salt]', 55.8),
  ('COC(=O)N[C@H](C(=O)N1CCC[C@H]1c1nc(-c2ccc(-c3cnc4cc(-c5cnc([C@@H]6CCCN6C(=O)CNC(=O)c6[nH]nc7ccccc67)[nH]5)ccc4n3)cc2)c[nH]1)C(C)C [Example 44, trifluoroacetic acid salt]', 100);

The following compounds each have a reported value; give each one's IC50.
1. COC(=O)N[C@@H](C)C(=O)N1CCC[C@H]1c1ncc(-c2ccc3nc(-c4ccc(-c5c[nH]c([C@@H]6CCCN6C(=O)[C@@H](NC(=O)OC)C(C)C)n5)cc4)cnc3c2)[nH]1 [Example 57, trifluoroacetic acid salt]
2. COC(=O)N[C@@H](CC1CCCCC1)C(=O)N1CCC[C@H]1c1ncc(-c2ccc3nc(-c4ccc(-c5c[nH]c([C@@H]6CCCN6C(=O)[C@@H](NC(=O)OC)C(C)C)n5)cc4)cnc3c2)[nH]1

21.9
11.4

---

Tested on: 1a-H77 replicon cells
Assay: HCV 1a replicon inhibitory activity (Renilla luciferase)
Assay type: cell-based, hepatitis C virus
Conditions: Hepatitis C virus; geometric mean, 95% confidence intervals in parentheses; 48 hours; medium with 10% FCS; read-out: IC50 value (95% Confidence Intervals) pM Replicon 1A assay
observable: IC50 (pM)
Numbers only, in pM.

INSERT INTO assay_data (smiles_data, measured_on, unit_abbrev, result_number) VALUES
  ('COC(=O)N[C@H](C(=O)N1CCC[C@H]1c1nc(-c2ccc(-c3ccc4cc(-c5cnc([C@@H]6CCCN6C(=O)[C@@H](NC(=O)OC)C(C)C)[nH]5)ccc4c3)nc2)c[nH]1)C(C)C', '1a-H77 replicon cells', 'pM', 56.4),
  ('COC(=O)N[C@H](C(=O)N1CCC[C@H]1c1ncc(-c2ccc(-c3ccc4nc(-c5cnc([C@@H]6CCCN6C(=O)[C@@H](NC(=O)OC)C(C)C)[nH]5)cnc4c3)cc2)[nH]1)C(C)C', '1a-H77 replicon cells', 'pM', 387);

Kindly consider the entry below.
Reported IC50 of COC(=O)N[C@H](C(=O)N1CCC[C@H]1c1ncc(-c2ccc(-c3ccc4cc(-c5cnc([C@@H]6CCCN6C(=O)[C@@H](NC(=O)OC)C(C)C)[nH]5)cnc4c3)nc2)[nH]1)C(C)C : 1320

---

Test: Compound induced cytotoxicity in HCV replicon cell lines (WST-1 reagent)
Type: cell-based
Conditions: human; WST-1, 48 hours; in 1 experiment
Where a name gives a salt, the structure may show the parent alone.
observable: CC50 at 48 h

# CC50 at 48 h of COC(=O)N[C@H](C(=O)N1CCC[C@H]1c1nc(-c2ccc(-c3cnc4cc(-c5cnc([C@@H]6CCCN6C(=O)[C@@H](NC(=O)OC)[C@@H](C)O)[nH]5)ccc4n3)cc2)c[nH]1)C(C)C [Example 60, trifluoroacetic acid salt] = > 2000 nM

---

Tested on: 1b (con1) replicon cells
Assay: HCV 1b replicon inhibitory activity (luciferase, Britelite Plus)
Format: cell-based, hepatitis C virus
Settings: geometric mean, 95% confidence intervals in parentheses; 48 hours; medium with 10% FCS; read-out: IC50 value (95% Confidence Intervals) pM Replicon 1B assay
Structures can show the parent of a compound that is named as a salt.
Can you tell me log10 IC50 for the items I'm about to list?
A value of 2 here means IC50 of 100 in pM, since values are log10.

Below, each entry is followed by its recorded log10 IC50 result.
INSERT INTO measurements (compound, result_number) VALUES
  ('CC[C@@H](NC(C)=O)C(=O)N1CCC[C@H]1c1ncc(-c2ccc3nc(-c4ccc(-c5c[nH]c([C@@H]6CCCN6C(=O)[C@@H](NC(=O)OC)C(C)C)n5)cc4)cnc3c2)[nH]1 [Example 38, trifluoroacetic acid salt]', 1.86),
  ('COC(=O)N[C@@H](CC(C)C)C(=O)N1CCC[C@H]1c1ncc(-c2ccc3nc(-c4ccc(-c5c[nH]c([C@@H]6CCCN6C(=O)[C@@H](NC(=O)OC)C(C)C)n5)cc4)cnc3c2)[nH]1 [Example 68, trifluoroacetic acid salt]', 0.91),
  ('CC[C@@H](NC(=O)OC)C(=O)N1CCC[C@H]1c1ncc(-c2ccc3nc(-c4ccc(-c5c[nH]c([C@@H]6CCCN6C(=O)[C@@H](NC(=O)OC)C(C)C)n5)cc4)cnc3c2)[nH]1 [Example 59, trifluoroacetic acid salt]', 1.99),
  ('COC(=O)N[C@H](C(=O)N1CCC[C@H]1c1nc(-c2ccc(-c3cnc4cc(-c5cnc([C@@H]6CCCN6C(=O)CNC(=O)CC(C)C)[nH]5)ccc4n3)cc2)c[nH]1)C(C)C [Example 33, trifluoroacetic acid salt]', 1.51),
  ('COC(=O)N[C@H](C(=O)N1CCC[C@H]1c1nc(-c2ccc(-c3cnc4cc(-c5cnc([C@@H]6CCCN6C(=O)[C@@H](CC(C)C)NC(=O)OC)[nH]5)ccc4n3)cc2)c[nH]1)C(C)C [Example 54, trifluoroacetic acid salt]', 1.17);

Give one value of log10 IC50 per listed compound.
1. COC(=O)N[C@H](C(=O)N1CCC[C@H]1c1nc(-c2ccc(-c3cnc4cc(-c5cnc([C@@H]6CCCN6C(=O)[C@@H](C)NC(=O)OC)[nH]5)ccc4n3)cc2)c[nH]1)C(C)C [Example 53, trifluoroacetic acid salt]
2. COC(=O)NC(C(=O)N1CCC[C@H]1c1ncc(-c2ccc3nc(-c4ccc(-c5c[nH]c([C@@H]6CCCN6C(=O)[C@@H](NC(=O)OC)C(C)C)n5)cc4)cnc3c2)[nH]1)C1CCCC1 (some centres unmarked) [Example 66, trifluoroacetic acid salt]
3. COC(=O)N[C@@H](COCc1ccccc1)C(=O)N1CCC[C@H]1c1ncc(-c2ccc3nc(-c4ccc(-c5c[nH]c([C@@H]6CCCN6C(=O)[C@@H](NC(=O)OC)C(C)C)n5)cc4)cnc3c2)[nH]1 [Example 48, trifluoroacetic acid salt]

1.32
1.34
0.84

---

Test: Plasma protein binding, Rapid Equilibrium Dialysis
Type: in vitro ADME
Details: human plasma proteins
observable: fraction unbound at 4 h, 2 µM

// batch mode: one fraction unbound at 4 h, 2 µM value per listed entry
1. COC(=O)N[C@H](C(=O)N1CCC[C@H]1c1ncc(-c2ccc(-c3ccc4cc(-c5cnc([C@@H]6CCCN6C(=O)[C@@H](NC(=O)OC)C(C)C)[nH]5)ccc4c3)cc2)[nH]1)C(C)C
2. COC(=O)N[C@H](C(=O)N1CCC[C@H]1c1nc(-c2ccc3nc(-c4ccc(-c5cnc([C@@H]6CCCN6C(=O)[C@@H](NC(=O)OC)C(C)C)[nH]5)cc4)ccc3c2)c[nH]1)C(C)C
3. COC(=O)N[C@H](C(=O)N1CCC[C@H]1c1ncc(-c2ccc(-c3ncc4cc(-c5cnc([C@@H]6CCCN6C(=O)[C@@H](NC(=O)OC)C(C)C)[nH]5)ccc4n3)cc2)[nH]1)C(C)C

[0.001, "< 0.0015", 0.0015]

---

System: 1a-H77 replicon cells
Experiment: HCV 1a replicon inhibitory activity (Renilla luciferase)
Assay type: cell-based, hepatitis C virus
Conditions: Hepatitis C virus; geometric mean, 95% confidence intervals in parentheses; 48 hours; medium with 10% FCS; read-out: IC50 value (95% Confidence Intervals) pM Replicon 1A assay
observable: IC50 (pM)
Answers are plain numbers, in pM.

INSERT INTO measurements (smiles_data, result_number) VALUES
  ('COC(=O)N[C@H](C(=O)N1CCC[C@H]1c1nc(-c2ccc(-c3nc4ccc(-c5c[nH]c([C@@H]6CCCN6C(=O)[C@@H](NC(=O)OC)C(C)C)n5)cc4nc3OC)cc2)c[nH]1)C(C)C', 560),
  ('COC(=O)N[C@H](C(=O)N1CCC[C@H]1c1ncc(-c2ccc(-c3cnc4cc(-c5cnc([C@@H]6CCCN6C(=O)[C@@H](NC(=O)OC)C(C)C)[nH]5)ccc4n3)cc2)[nH]1)C(C)C', 17.4);

Field IC50 (1a-H77 replicon cells), entry COC(=O)N[C@H](C(=O)N1CCC[C@H]1c1ncc(-c2ccc(-c3ccc4cc(-c5cnc([C@@H]6CCCN6C(=O)[C@@H](NC(=O)OC)C(C)C)[nH]5)ncc4c3)cc2)[nH]1)C(C)C : 91.2
